target-system: UniProt Q08345
Sequence (Q08345 19-913): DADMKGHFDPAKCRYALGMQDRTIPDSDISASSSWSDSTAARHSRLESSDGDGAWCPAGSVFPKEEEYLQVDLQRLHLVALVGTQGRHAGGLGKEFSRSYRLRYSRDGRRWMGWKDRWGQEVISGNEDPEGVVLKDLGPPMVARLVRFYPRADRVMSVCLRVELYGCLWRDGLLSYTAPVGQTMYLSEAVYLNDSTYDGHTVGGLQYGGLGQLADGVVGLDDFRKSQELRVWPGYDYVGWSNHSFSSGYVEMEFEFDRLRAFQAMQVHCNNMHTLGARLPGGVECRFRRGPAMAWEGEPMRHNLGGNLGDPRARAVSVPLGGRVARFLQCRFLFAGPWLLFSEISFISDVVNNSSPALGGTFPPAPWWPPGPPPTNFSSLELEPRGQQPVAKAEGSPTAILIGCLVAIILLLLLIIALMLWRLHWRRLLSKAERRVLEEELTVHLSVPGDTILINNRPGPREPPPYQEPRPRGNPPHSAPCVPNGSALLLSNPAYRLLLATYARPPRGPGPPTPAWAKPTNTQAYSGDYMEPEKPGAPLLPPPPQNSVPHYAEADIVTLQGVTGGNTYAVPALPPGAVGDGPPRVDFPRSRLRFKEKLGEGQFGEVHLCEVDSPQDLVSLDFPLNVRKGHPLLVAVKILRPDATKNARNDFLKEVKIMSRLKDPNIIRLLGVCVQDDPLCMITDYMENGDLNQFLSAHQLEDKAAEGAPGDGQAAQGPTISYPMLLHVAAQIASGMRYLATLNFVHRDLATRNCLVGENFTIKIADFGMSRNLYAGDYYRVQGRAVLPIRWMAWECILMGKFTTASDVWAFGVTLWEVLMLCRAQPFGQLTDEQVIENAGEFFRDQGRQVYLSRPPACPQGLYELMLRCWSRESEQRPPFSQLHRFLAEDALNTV
protocol: Evaluation of DDR1 kinase inhibition in DDR1-expressing U2OS cells (type I collagen stimulation, PathHunter detection)
Assay type: cell-based
Set-up: host or cells: U2OS
conditions-used: type I collagen 50 µg/mL stimulation, duplicate, read-out: DDR-1 IC50
Counter-ions that a name gives are not always drawn.
hey, just use Condition met if measured IC50 is less than 200 nM, otherwise Condition not met

Previously resolved entries follow.
| molecule | label-value |
| --- | --- |
| CN(CC(F)(F)F)C(=O)Cn1nc(C2CN(C(=O)c3nc(N)ncc3F)C2)c2ccccc21 | Condition not met |
| Nc1cc(C(=O)N2CC(c3nn(Cc4ccc(C(F)(F)F)cc4)c4cccc(F)c34)C2)ccn1 [Compound E-112, hydrochloride] | Condition met |
| C[C@@H]1COCCN1C(=O)Cn1nc(C2CN(C(=O)c3ccnc(N)c3)C2)c2c(F)cc(F)cc21 [Compound E-80, hydrochloride] | Condition not met |
| Nc1cc(C(=O)N2CC(c3nn(CC(=O)N4CCCC4)c4cc(F)cc(F)c34)C2)ccn1 | Condition not met |
| Cc1ccc2c(n1)c(C1CN(C(=O)c3cc(N)ncc3F)C1)nn2CC(=O)N1CCOC(C(F)(F)F)C1 (stereo not drawn) | Condition not met |
| Nc1cc(C(=O)N2CC(c3nn(CC(=O)N4CCC[C@H]4C(F)(F)F)c4ccc(Cl)cc34)C2)c(F)cn1 | Condition met |
| Nc1cc(C(=O)N2CC(c3nn(Cc4nc(-c5cccc(C(F)(F)F)c5)no4)c4cccc(F)c34)C2)ccn1 | Condition met |
| Cc1cnc(N)cc1C(=O)N1CC(c2nn(CC(=O)N3CCC[C@H]3C(F)(F)F)c3cc(F)cc(F)c23)C1 [Compound E-78, hydrochloride] | Condition not met |
| Cc1nc(N)oc1C(=O)N1CC(c2nn(CC(=O)N3CCC[C@H]3C(F)(F)F)c3cc(F)cc(F)c23)C1 | Condition met |
| C[C@H]1CN(C(=O)Cn2nc(C3CN(C(=O)c4ccnc(N)c4)C3)c3c(F)cc(F)cc32)CCO1 [Compound E-79, hydrochloride] | Condition not met |

**Query** Lab note: confirm whether the reported IC50 for this molecule is below 200 nM, equality not counting. molecule: Nc1cc(C(=O)N2CC(c3nn(CC(=O)N4CCC[C@H]4C(F)(F)F)c4ccccc34)C2)ccn1
**Result** Condition met

**Query** # repeat for Cc1c(C(=O)N2CC(c3nn(CC(=O)N4CCO[C@@H](C(F)(F)F)C4)c4ccccc34)C2)ccnc1N
**Result** Condition not met

**Query** And for Nc1nccc(C(=O)N2CC(c3nn(CC(=O)N4CCO[C@@H](C(F)(F)F)C4)c4ccccc34)C2)c1F ?
**Result** Condition not met

**Query** Entry to check: Cc1nc(N)sc1C(=O)N1CC(c2nn(CC(=O)N3CCCC3COC(F)(F)F)c3cncc(F)c23)C1 (stereo not drawn)
**Result** Condition not met

**Query** Further, for Nc1cc(C(=O)N2CC(c3nn(CC(=O)N4CCC(F)(F)CC4)c4ccccc34)C2)c(F)cn1 ?
**Result** Condition met

**Query** Further, for CC(C)N(C)C(=O)Cn1nc(C2CN(C(=O)c3cc(N)ncc3F)C2)c2ccccc21 ?
**Result** Condition met
